Entries annotated with measured Correlation
target_under_test: ABCC3 (Homo sapiens, UniProt O15438)
Construct: profiled in 60 diverse cancer cell lines (the NCI-60) using real-time RT-PCR; endogenous in cells; host or cells: NCI-60 human cancer cell lines
assay_explanation: Correlation of ABCC3 expression with drug sensitivity across the NCI-60
Type: cell-based
test_conditions: Pearson correlation of ABCC3 expression with sensitivity of the 60 cell lines; 1429 compounds; inverse, p < 0.0001
Lab note: jot the number down without any unit.

Solved cases below.
{"molecule": "O=C(CC(=O)c1ccccc1NC1=Cc2ccccc2C(=O)C1=O)C(=O)NC1=C(Cl)C(=O)c2ccccc2C1=O", "measurement_type": "Correlation", "observed_value": "−0.5702"}
{"molecule": "CCN(CC)CC(O)CNc1ccc(NCC2CO2)c2c1C(=O)c1ccccc1C2=O (stereo not shown)", "measurement_type": "Correlation", "observed_value": "−0.5003"}
{"molecule": "COC(=O)c1ccccc1NC(=O)C(=O)CC(=O)c1ccccc1NC1=CC(=O)C(=O)c2ccccc21", "measurement_type": "Correlation", "observed_value": "−0.5829"}
{"molecule": "CC(C)(C)NNc1c([N+](=O)[O-])cnn(-c2ccccc2)c1=O", "measurement_type": "Correlation", "observed_value": "−0.3991"}
{"molecule": "O=C1C=C(N2CCN(c3ccccn3)CC2)C(=O)c2c(O)ccc(O)c21", "measurement_type": "Correlation", "observed_value": "−0.4982"}

Considering CCOC(=O)/C(C#N)=C/c1ccc2c(c1)CC1(C2)Cc2cc(CC)c(C(C)O)cc2C1 (stereo not shown) , its Correlation with ABCC3 (Homo sapiens, UniProt O15438) was recorded as −0.3824

Considering O=C1C=C(Nc2ccccc2C(=O)CC(=O)C(=O)Nc2cccc(C(F)(F)F)c2)c2ccccc2C1=O , its Correlation with ABCC3 (Homo sapiens, UniProt O15438) was recorded as −0.5748

Considering Cc1oc2c(c1C(=O)c1ccccc1)C(=O)c1ccccc1C2=O , its Correlation with ABCC3 (Homo sapiens, UniProt O15438) was recorded as −0.4994

Considering CC(=O)NC1=CC(=O)c2cc(C)cc(O)c2C1=O , its Correlation with ABCC3 (Homo sapiens, UniProt O15438) was recorded as −0.5526

Considering Cn1c(=O)nc2n(-c3ccc(Cl)cc3)c3cc(Cl)ccc3nc-2c1=O , its Correlation with ABCC3 (Homo sapiens, UniProt O15438) was recorded as −0.4741

###

target_under_test: ABCB1 (Homo sapiens)
assay_explanation: Correlation of ABCB1 expression with drug sensitivity across the NCI-60
Entries annotated with measured Correlation
Lab note: jot the number down without any unit.

Solved cases below.
{"compound": "Br.CCN(CC)CC[n+]1ccc2c(C)c3[nH]c4ccccc4c3c(C)c2c1.[Br-]", "measurement_type": "Correlation", "observed_value": "−0.7983"}
{"compound": "CC[C@]12C=CCN3CCC4(c5cc([C@@]6(C(=O)OC)CC7CN(CCc8c6[nH]c6ccccc86)C[C@@H]6CCC[C@H]76)c(OC)cc5N(C)C4[C@](O)(C(=O)OC)C1OC(C)=O)C32.COS(=O)(=O)O (stereo partly shown)", "measurement_type": "Correlation", "observed_value": "−0.3910"}
{"compound": "CCN(CC)CC[n+]1ccc2c(C)c3[nH]c4ccccc4c3c(C)c2c1", "measurement_type": "Correlation", "observed_value": "−0.7108"}
{"compound": "C[N+]1(C)C/C(=C\\C=C\\c2ccccc2)C(=O)/C(=C/C=C/c2ccccc2)C1.[I-]", "measurement_type": "Correlation", "observed_value": "−0.5530"}
{"compound": "CCN(CC)c1ccc(/C=C2/C[N+](C)(C)C/C(=C/c3ccc(N(CC)CC)cc3)C2=O)cc1.[I-]", "measurement_type": "Correlation", "observed_value": "−0.7900"}
{"compound": "CN(C)c1ccc(/C=C2\\C[N+](C)(C)C/C(=C\\c3ccc(N(C)C)cc3)C2=O)cc1.[I-]", "measurement_type": "Correlation", "observed_value": "−0.6081"}

Next:
Record summary for COc1c(OC(C)=O)c(OC(C)=O)cc2c1-c1ccc(SC)c(=O)cc1C(NC(C)=O)CC2 (stereo not shown) : reported Correlation = −0.5590

###

target_under_test: ABCA4 (Homo sapiens, UniProt P78363)
Construct: profiled in 60 diverse cancer cell lines (the NCI-60) using real-time RT-PCR; endogenous in cells; host or cells: NCI-60 human cancer cell lines
Sequence (P78363 whole entry): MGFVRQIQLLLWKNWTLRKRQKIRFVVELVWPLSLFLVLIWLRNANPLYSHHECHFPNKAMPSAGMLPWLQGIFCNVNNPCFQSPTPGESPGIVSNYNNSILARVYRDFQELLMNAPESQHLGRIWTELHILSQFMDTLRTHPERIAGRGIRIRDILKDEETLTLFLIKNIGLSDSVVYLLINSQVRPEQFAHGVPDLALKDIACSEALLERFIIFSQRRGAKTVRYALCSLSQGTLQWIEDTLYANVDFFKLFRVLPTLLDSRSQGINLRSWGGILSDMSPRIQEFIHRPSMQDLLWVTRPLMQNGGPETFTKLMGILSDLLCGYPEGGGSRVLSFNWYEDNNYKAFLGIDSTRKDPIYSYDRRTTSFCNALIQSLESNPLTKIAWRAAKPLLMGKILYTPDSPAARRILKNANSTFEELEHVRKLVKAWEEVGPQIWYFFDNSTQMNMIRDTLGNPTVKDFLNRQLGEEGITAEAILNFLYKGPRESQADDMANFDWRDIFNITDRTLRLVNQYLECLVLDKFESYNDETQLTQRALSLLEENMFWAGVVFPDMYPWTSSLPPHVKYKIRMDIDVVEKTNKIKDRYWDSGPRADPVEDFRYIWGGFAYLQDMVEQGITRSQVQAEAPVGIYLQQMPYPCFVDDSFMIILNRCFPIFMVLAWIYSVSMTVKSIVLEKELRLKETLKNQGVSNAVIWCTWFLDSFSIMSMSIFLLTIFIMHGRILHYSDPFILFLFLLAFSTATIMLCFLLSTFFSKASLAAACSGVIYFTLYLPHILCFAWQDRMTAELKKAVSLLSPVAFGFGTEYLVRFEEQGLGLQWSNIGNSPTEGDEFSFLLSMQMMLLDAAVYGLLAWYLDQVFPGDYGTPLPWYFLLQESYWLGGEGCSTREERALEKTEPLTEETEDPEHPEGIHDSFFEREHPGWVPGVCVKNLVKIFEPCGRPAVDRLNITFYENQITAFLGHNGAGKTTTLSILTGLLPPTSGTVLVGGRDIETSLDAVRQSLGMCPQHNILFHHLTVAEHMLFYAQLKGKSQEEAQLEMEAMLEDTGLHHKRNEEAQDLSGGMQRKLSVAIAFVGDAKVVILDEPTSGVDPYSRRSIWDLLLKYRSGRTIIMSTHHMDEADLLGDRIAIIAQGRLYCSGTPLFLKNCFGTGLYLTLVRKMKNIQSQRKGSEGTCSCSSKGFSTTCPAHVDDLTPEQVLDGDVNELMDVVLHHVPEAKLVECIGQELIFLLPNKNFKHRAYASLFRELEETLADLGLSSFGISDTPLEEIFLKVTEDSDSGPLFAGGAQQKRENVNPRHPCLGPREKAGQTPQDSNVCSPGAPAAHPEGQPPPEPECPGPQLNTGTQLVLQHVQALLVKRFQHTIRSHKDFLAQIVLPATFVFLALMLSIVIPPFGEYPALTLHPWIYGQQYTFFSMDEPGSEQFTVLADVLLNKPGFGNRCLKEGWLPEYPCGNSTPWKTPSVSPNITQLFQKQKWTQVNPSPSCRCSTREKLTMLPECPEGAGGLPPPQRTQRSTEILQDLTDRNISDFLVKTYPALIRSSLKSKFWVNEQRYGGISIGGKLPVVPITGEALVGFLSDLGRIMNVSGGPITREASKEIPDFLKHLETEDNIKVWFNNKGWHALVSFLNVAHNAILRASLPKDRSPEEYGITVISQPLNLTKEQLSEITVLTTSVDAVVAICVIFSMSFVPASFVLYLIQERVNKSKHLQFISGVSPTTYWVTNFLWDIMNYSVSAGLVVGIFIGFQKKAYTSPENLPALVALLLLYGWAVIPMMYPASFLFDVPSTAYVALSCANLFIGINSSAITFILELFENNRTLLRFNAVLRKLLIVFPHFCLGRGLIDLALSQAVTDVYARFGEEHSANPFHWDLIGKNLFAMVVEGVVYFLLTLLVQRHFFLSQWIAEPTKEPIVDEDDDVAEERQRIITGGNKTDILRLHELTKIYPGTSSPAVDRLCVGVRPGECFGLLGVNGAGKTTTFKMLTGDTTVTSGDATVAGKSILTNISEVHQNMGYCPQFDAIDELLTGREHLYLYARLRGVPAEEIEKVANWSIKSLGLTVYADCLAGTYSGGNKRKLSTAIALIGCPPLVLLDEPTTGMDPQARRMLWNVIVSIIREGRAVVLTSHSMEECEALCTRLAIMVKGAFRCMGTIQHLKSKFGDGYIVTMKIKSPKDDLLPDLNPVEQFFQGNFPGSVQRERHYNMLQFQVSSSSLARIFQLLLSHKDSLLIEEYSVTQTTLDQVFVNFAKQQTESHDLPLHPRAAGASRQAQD
assay_explanation: Correlation of ABCA4 expression with drug sensitivity across the NCI-60
Type: cell-based
test_conditions: Pearson correlation of ABCA4 expression with sensitivity of the 60 cell lines; 1429 compounds; inverse, p < 0.0001
measurement_type: Correlation
Lab note: jot the number down without any unit.

{"compound": "CC1=C(C(=O)Nc2ccccc2)C(c2ccc(N(C)C)cc2)C(C(=O)Nc2ccccc2)=C(C)N1 [NSC 636092]", "Correlation": "−0.3977"}
{"compound": "Cc1cc(C)c2c(=O)cc(-c3ccccc3)[nH]c2c1 [NSC 665925]", "Correlation": "−0.4545"}
{"compound": "C=C1[C@H](OCC(C)C)[C@@H](O)[C@@H](OC(=O)c2cccnc2)C(C)(C)/C=C/[C@H](C)[C@H](OC(C)=O)[C@@]2(O)C[C@@](C)(OC(C)=O)[C@H](OC(=O)c3ccccc3)[C@@H]2[C@H]1OC(C)=O [NSC 688235]", "Correlation": "−0.3557"}

Record summary for COc1cc(CNc2ccc(SC)cc2)cc(OC)c1OC [NSC 650771] : reported Correlation = −0.3792

###

target_under_test: ABCB1 (Homo sapiens, UniProt P08183)
assay_explanation: Correlation of ABCB1 expression with drug sensitivity across the NCI-60
Entries annotated with measured Pearson's Correlation Coeff
Lab note: jot the number down without any unit.

Record summary for Cc1cc(N(CCOS(C)(=O)=O)CCOS(C)(=O)=O)ccc1C=Nc1ccc(-c2nc(Cc3ccccc3)sc2C)cc1 [NSC281817] : reported Pearson's Correlation Coeff = 0.2646

###

Entries annotated with measured Correlation
target_under_test: ABCD1 (Homo sapiens, UniProt P33897)
Construct: profiled in 60 diverse cancer cell lines (the NCI-60) using real-time RT-PCR; endogenous in cells; host or cells: NCI-60 human cancer cell lines
Sequence (P33897 whole entry): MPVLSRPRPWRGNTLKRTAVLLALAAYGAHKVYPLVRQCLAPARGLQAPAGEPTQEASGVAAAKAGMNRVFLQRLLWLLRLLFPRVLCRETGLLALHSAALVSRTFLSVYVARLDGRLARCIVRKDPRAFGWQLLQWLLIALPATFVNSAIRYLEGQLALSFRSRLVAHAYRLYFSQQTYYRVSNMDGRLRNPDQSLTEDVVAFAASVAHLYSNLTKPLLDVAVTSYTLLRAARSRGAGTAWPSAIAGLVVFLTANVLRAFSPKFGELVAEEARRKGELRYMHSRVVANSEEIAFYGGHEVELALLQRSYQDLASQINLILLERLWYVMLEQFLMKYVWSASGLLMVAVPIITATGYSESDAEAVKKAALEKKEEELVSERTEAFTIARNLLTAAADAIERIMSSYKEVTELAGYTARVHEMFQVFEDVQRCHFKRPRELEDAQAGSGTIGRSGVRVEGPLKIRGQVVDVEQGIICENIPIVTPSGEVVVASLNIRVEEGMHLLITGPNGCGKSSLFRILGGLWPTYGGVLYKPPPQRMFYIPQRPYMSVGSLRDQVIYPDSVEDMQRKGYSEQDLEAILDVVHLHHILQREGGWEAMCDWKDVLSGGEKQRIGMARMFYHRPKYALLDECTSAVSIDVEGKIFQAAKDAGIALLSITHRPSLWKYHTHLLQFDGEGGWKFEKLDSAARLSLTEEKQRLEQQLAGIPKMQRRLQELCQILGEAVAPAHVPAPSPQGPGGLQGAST
assay_explanation: Correlation of ABCD1 expression with drug sensitivity across the NCI-60
Type: cell-based
test_conditions: Pearson correlation of ABCD1 expression with sensitivity of the 60 cell lines; 1429 compounds; inverse, p < 0.0001

Solved cases below.
{"molecule": "O=C1/C(=C/c2ccc(F)cc2)CNC/C1=C\\c1ccc(F)cc1", "target_under_test": "ABCD1 (Homo sapiens, UniProt P33897)", "observed_value": "−0.4464"}
{"molecule": "CCCCCCOc1ccc(C(=O)N(C)O)cc1", "target_under_test": "ABCD1 (Homo sapiens, UniProt P33897)", "observed_value": "−0.5012"}
{"molecule": "Nc1nc(=S)c2ncn(C3CC(O)C(CO)O3)c2[nH]1 (stereo not shown)", "target_under_test": "ABCD1 (Homo sapiens, UniProt P33897)", "observed_value": "−0.4425"}
{"molecule": "CN(C)CCCNc1ccc2c(=O)n(CCN(C)C)c(=O)n3c4ccccc4c(=O)c1c23", "target_under_test": "ABCD1 (Homo sapiens, UniProt P33897)", "observed_value": "−0.4236"}
{"molecule": "Cc1c2ccncc2c(C)c2c1[nH]c1ccccc12", "target_under_test": "ABCD1 (Homo sapiens, UniProt P33897)", "observed_value": "−0.4642"}
{"molecule": "COc1ccc2c(c1)c(=O)c1c(NCCCN(C)C)ccc3ncn2c31.Cl", "target_under_test": "ABCD1 (Homo sapiens, UniProt P33897)", "observed_value": "−0.4824"}

Next:
Record summary for CCCCCCOc1ccc(C(=O)NO)cc1 : reported Correlation = −0.4680

###

target_under_test: ABCC7 (Homo sapiens)
Construct: profiled in 60 diverse cancer cell lines (the NCI-60) using real-time RT-PCR; endogenous in cells; host or cells: NCI-60 human cancer cell lines
Sequence (P13569 whole entry): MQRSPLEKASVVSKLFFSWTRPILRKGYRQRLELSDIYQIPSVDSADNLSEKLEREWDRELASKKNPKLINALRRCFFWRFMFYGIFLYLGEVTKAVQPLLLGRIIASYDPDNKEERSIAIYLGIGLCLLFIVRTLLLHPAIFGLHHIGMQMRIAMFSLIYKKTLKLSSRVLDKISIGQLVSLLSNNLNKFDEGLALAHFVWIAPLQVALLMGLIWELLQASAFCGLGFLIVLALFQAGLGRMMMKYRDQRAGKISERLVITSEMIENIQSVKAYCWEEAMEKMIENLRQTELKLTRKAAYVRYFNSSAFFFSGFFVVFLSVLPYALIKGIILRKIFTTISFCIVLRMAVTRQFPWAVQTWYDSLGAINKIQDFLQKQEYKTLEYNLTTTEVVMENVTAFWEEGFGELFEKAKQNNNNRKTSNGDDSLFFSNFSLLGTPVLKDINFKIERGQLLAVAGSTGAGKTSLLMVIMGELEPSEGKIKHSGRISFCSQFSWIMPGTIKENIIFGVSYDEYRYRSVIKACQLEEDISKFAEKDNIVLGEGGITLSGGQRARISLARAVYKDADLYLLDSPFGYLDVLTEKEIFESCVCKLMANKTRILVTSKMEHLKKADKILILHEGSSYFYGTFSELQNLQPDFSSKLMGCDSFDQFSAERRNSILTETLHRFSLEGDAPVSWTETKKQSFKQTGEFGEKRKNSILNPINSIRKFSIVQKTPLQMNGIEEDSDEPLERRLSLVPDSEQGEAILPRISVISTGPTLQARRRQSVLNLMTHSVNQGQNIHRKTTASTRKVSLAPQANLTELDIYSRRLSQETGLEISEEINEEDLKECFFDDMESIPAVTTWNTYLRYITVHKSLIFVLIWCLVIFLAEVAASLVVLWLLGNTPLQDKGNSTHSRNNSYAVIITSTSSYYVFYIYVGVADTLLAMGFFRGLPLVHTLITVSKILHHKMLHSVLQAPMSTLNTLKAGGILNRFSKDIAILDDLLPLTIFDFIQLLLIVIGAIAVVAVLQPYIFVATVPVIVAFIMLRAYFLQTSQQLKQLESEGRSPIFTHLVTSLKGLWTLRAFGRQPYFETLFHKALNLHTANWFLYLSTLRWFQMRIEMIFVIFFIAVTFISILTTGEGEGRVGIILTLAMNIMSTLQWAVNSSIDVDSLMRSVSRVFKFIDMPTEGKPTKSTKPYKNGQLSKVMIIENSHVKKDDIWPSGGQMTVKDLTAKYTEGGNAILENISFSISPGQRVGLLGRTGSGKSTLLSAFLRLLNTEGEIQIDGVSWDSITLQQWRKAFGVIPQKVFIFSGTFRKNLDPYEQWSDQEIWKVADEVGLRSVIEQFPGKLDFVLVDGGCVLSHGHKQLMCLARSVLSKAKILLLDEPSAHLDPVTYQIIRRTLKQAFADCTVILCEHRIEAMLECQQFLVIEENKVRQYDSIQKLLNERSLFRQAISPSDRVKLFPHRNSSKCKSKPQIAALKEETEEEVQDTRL
assay_explanation: Correlation of ABCC7 expression with drug sensitivity across the NCI-60
Assay type: cell-based
test_conditions: Pearson correlation of ABCC7 expression with sensitivity of the 60 cell lines; 1429 compounds; inverse, p < 0.0001
Entries annotated with measured Correlation
Lab note: jot the number down without any unit.

Solved cases below.
{"compound": "COc1cc2cc[n+]3c(c2cc1OC)C(=O)c1ccccc1-3", "Correlation": "−0.5471"}
{"compound": "Cc1c2ccnc(-c3ccccc3)c2cc2c1[nH]c1ccccc12", "Correlation": "−0.5696"}
{"compound": "CC(=O)Oc1c2ccsc2c(OC(C)=O)c2ccsc12", "Correlation": "−0.4297"}
{"compound": "CC1CSC(=S)N1C(=O)N1C(=S)SCC1C (centres unmarked)", "Correlation": "−0.5519"}
{"compound": "COc1ccc(O)c2c(=O)c3c(OC)cc4c(c3oc12)[C@@H]1C=CO[C@@H]1O4", "Correlation": "−0.5603"}

Record summary for CC(C)(C)c1nc2c(o1)C(=Nc1ccc(F)cc1)c1ccccc1C2=O : reported Correlation = −0.5025

Record summary for COC(=O)CCC(=O)NC1=C(Nc2ccc(OC)cc2)C(=O)c2ccccc2C1=O : reported Correlation = −0.4378

Record summary for CC12CCC(CC1)C(C)(C)O2 : reported Correlation = −0.4552
